# study-target: T1, IL-18R on HEK-Blue IL18R reporter cells (InvivoGen, #hkb-hmi118) (UniProt Q13478 19-541; O95256 20-599, limits assumed)
# T1 sequence (looked up) 1: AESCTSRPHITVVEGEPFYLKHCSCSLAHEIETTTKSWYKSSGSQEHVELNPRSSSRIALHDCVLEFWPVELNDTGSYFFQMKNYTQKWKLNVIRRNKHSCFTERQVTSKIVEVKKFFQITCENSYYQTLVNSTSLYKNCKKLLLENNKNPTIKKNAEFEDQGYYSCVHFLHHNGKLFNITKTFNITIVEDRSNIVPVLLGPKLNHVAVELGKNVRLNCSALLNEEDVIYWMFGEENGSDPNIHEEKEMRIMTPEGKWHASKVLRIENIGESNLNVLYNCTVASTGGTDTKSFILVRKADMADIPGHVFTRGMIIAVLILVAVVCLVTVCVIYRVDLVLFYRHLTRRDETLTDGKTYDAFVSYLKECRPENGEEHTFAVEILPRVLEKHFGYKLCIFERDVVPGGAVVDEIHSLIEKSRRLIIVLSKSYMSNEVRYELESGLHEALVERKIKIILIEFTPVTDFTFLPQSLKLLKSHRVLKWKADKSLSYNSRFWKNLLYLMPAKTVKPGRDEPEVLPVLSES
# T1 sequence (looked up) 2: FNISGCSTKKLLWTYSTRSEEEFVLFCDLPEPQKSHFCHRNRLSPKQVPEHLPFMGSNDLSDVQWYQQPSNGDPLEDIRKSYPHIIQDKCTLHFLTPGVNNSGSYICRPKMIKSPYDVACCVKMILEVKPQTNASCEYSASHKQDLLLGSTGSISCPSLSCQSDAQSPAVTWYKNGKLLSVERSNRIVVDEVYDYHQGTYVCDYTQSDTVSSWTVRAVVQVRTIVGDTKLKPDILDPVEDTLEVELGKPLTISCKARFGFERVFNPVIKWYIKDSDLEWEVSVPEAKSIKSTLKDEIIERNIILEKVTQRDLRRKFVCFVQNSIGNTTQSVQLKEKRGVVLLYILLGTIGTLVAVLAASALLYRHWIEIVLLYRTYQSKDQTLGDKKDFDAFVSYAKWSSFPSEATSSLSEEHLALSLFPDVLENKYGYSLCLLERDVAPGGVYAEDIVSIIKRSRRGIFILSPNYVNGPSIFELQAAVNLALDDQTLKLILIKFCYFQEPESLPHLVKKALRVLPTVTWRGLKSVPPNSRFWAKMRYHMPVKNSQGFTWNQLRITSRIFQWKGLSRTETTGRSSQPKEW
# protocol-details: cell-based or functional assay
assay-readout: EC50, HEK-Blue IL18R reporter assay (pM)
Your answer should be a plain number; it is taken to be in pM.

Take a look at these entries with their results.
- IL-18 polypeptide C152 (V11I, S36A, C38A, K53A, C76A, C127A) (ligand) YFGKLESKLSIIRNLNDQVLFIDQGNRPLFEDMTDADARDNAPRTIFIISMYADSQPRGMAVTISVKCEKISTLSAENKIISFKEMNPPDNIKDTKSDIIFFQRSVPGHDNKMQFESSSYEGYFLAAEKERDLFKLILKKEDELGDRSIMFTVQNED: 0.25
- IL-18 polypeptide of SEQ ID NO: 54 (E06K, K53A, C38S, C68S, C76S, C127S, K70C) (ligand) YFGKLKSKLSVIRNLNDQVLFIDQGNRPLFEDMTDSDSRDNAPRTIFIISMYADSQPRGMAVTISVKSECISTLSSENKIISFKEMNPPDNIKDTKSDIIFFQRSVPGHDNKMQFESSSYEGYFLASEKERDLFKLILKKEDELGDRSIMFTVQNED: 9.12
- IL-18 polypeptide C177 (E6K, V11I, C38A, I49R, K53A, T63A, C76A, C127A) (ligand) YFGKLKSKLSIIRNLNDQVLFIDQGNRPLFEDMTDSDARDNAPRTIFIRSMYADSQPRGMAVAISVKCEKISTLSAENKIISFKEMNPPDNIKDTKSDIIFFQRSVPGHDNKMQFESSSYEGYFLAAEKERDLFKLILKKEDELGDRSIMFTVQNED: 0.04
- IL-18 polypeptide C176 (E6K, V11I, C38A, I49M, K53A, T63A, C76A, C127A) (ligand) YFGKLKSKLSIIRNLNDQVLFIDQGNRPLFEDMTDSDARDNAPRTIFIMSMYADSQPRGMAVAISVKCEKISTLSAENKIISFKEMNPPDNIKDTKSDIIFFQRSVPGHDNKMQFESSSYEGYFLAAEKERDLFKLILKKEDELGDRSIMFTVQNED: 0.07

According to the records, this binder IL-18 polypeptide C141 (SEQ ID NO: 71; N-terminal G, E6K, V11I, C38A, K53A, T63A, C76A, C127A) (ligand) GYFGKLKSKLSIIRNLNDQVLFIDQGNRPLFEDMTDSDARDNAPRTIFIISMYADSQPRGMAVAISVKCEKISTLSAENKIISFKEMNPPDNIKDTKSDIIFFQRSVPGHDNKMQFESSSYEGYFLAAEKERDLFKLILKKEDELGDRSIMFTVQNED displays EC50, HEK-Blue IL18R reporter assay of 1.68
